Molecular target: T1, Human C3 (Complement tech cat #A113c) (human, UniProt P01024 23-1663)
T1 construct: Purified protein immobilised by amine coupling in the SPR assay; in the haemolysis assay it is the C3 of diluted human serum; Native C3 consists of a beta and an alpha chain cut from one precursor; also called C3 protein
T1 sequence (P01024 23-1663 limits assumed): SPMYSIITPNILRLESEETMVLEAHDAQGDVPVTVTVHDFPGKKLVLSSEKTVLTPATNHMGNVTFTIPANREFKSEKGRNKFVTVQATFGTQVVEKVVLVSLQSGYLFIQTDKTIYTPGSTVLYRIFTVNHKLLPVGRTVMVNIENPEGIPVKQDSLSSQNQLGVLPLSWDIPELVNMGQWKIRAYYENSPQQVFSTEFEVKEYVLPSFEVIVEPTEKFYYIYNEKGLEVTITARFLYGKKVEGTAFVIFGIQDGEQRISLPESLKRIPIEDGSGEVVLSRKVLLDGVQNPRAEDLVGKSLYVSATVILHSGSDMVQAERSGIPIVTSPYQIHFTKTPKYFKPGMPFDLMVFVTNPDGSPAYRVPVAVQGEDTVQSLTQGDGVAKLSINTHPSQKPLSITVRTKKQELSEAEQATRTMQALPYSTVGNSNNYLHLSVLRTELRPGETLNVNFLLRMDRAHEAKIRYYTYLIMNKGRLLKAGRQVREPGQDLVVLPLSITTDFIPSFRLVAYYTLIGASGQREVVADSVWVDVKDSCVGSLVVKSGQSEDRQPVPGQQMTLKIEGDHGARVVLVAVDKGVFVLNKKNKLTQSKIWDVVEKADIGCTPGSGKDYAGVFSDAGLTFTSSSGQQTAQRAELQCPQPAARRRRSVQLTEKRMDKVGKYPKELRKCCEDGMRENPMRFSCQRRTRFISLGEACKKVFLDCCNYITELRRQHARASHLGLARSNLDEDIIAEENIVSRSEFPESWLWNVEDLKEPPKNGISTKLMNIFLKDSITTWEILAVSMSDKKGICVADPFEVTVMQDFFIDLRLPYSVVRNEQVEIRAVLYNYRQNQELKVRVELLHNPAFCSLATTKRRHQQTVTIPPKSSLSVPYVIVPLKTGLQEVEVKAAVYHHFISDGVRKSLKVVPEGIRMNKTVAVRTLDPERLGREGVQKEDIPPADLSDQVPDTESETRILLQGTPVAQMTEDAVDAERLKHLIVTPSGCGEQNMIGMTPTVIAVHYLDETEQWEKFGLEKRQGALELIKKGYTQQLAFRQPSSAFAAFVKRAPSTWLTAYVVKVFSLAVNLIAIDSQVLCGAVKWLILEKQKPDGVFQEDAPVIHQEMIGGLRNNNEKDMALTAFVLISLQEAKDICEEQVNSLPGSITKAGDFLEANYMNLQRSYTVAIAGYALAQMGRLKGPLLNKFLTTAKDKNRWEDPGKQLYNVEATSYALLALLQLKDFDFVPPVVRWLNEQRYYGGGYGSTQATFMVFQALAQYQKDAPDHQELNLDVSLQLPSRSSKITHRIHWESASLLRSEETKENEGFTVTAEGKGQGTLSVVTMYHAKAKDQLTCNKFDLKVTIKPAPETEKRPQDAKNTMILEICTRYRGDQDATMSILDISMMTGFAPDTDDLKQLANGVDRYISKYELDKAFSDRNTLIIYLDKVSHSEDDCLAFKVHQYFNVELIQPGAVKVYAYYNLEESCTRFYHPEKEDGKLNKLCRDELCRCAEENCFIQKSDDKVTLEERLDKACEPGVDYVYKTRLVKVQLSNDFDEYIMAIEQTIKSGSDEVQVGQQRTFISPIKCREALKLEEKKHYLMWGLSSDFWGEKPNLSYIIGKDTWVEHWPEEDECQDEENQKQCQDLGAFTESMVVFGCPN
Test: SPR (Biacore T200), human C3 immobilised, peptide injected, 1:1 fit
Positions of bridges follow the written chain, without caps; N, C: chain ends.
Reported pKd is given for each of the following binders.
// scale note: pKd = -log10(conc_M); give the bare number

Some solved cases for reference:
[
  {
    "BINDER": "Ac-ICIWQDWGEHRCTGAES-NH2 (disulfide 2-12; SMILES CC[C@H](C)[C@H](NC(C)=O)C(=O)N[C@H]1CSSC[C@@H](C(=O)N[C@H](C(=O)NCC(=O)N[C@@H](C)C(=O)N[C@@H](CCC(=O)O)C(=O)N[C@@H](CO)C(N)=O)[C@@H](C)O)NC(=O)[C@H](CCCNC(=N)N)NC(=O)[C@H](Cc2c[nH]cn2)NC(=O)[C@H](CCC(=O)O)NC(=O)CNC(=O)[C@H](Cc2c[nH]c3ccccc23)NC(=O)[C@H](CC(=O)O)NC(=O)[C@H](CCC(N)=O)NC(=O)[C@H](Cc2c[nH]c3ccccc23)NC(=O)[C@H]([C@@H](C)CC)NC1=O) [Compound 15]",
    "pKd": 7.85
  },
  {
    "BINDER": "Ac-ICIWQDWGEHRCS-NH2 (disulfide 2-12; SMILES CC[C@H](C)[C@H](NC(C)=O)C(=O)N[C@H]1CSSC[C@@H](C(=O)N[C@@H](CO)C(N)=O)NC(=O)[C@H](CCCNC(=N)N)NC(=O)[C@H](Cc2c[nH]cn2)NC(=O)[C@H](CCC(=O)O)NC(=O)CNC(=O)[C@H](Cc2c[nH]c3ccccc23)NC(=O)[C@H](CC(=O)O)NC(=O)[C@H](CCC(N)=O)NC(=O)[C@H](Cc2c[nH]c3ccccc23)NC(=O)[C@H]([C@@H](C)CC)NC1=O) [Compound 21]",
    "pKd": 7.80
  },
  {
    "BINDER": "Ac-ICIWQDWGEHRCT-NH2 (disulfide 2-12; SMILES CC[C@H](C)[C@H](NC(C)=O)C(=O)N[C@H]1CSSC[C@@H](C(=O)N[C@H](C(N)=O)[C@@H](C)O)NC(=O)[C@H](CCCNC(=N)N)NC(=O)[C@H](Cc2c[nH]cn2)NC(=O)[C@H](CCC(=O)O)NC(=O)CNC(=O)[C@H](Cc2c[nH]c3ccccc23)NC(=O)[C@H](CC(=O)O)NC(=O)[C@H](CCC(N)=O)NC(=O)[C@H](Cc2c[nH]c3ccccc23)NC(=O)[C@H]([C@@H](C)CC)NC1=O) [Compound 2]",
    "pKd": 7.80
  }
]

Turning to the following binder.
**Q:** Name the recorded pKd for Ac-ICVWQDWGEHRCS-NH2 (disulfide 2-12; SMILES CC[C@H](C)[C@H](NC(C)=O)C(=O)N[C@H]1CSSC[C@@H](C(=O)N[C@@H](CO)C(N)=O)NC(=O)[C@H](CCCNC(=N)N)NC(=O)[C@H](Cc2c[nH]cn2)NC(=O)[C@H](CCC(=O)O)NC(=O)CNC(=O)[C@H](Cc2c[nH]c3ccccc23)NC(=O)[C@H](CC(=O)O)NC(=O)[C@H](CCC(N)=O)NC(=O)[C@H](Cc2c[nH]c3ccccc23)NC(=O)[C@H](C(C)C)NC1=O) [Compound G] .
**A:** 6.80

Source: patent US11965039B2
